Property: activity at 10 µM; scope: individual molecules
Test system: M14
Test: NCI one-dose screen
Format: cell-based
Details: Homo sapiens; M14, 10 µM; read-out: Growth Percent
Write the answer as a number in %, unit excluded.

O=C(/C=C/c1ccccc1)c1ccc(-n2cc(CN3CCN(c4cc5c(cc4F)c(=O)c(C(=O)O)cn5C4CC4)CC3)nn2)cc1 [Compound 4a] : 90.1
O=C(/C=C/c1ccc(Cl)cc1)c1ccc(-n2cc(CN3CCN(c4cc5c(cc4F)c(=O)c(C(=O)O)cn5C4CC4)CC3)nn2)cc1 [Compound 4c] : 84.4

Please turn your attention to the following entry.
State, in one line, measured activity at 10 µM of COc1cc(/C=C/C(=O)c2ccc(-n3cc(CN4CCN(c5cc6c(cc5F)c(=O)c(C(=O)O)cn6C5CC5)CC4)nn3)cc2)cc(OC)c1OC [Compound 4j]
28.2

* * *

Property: activity at 10 µM; scope: individual compounds
Test system: SN12C
Test: NCI one-dose screen
Format: cell-based
Conditions: Homo sapiens, read-out: Growth Percent
Write the answer as a number in %, unit excluded.

CN(C)c1ccc(/C=C/C(=O)c2ccc(-n3cc(CN4CCN(c5cc6c(cc5F)c(=O)c(C(=O)O)cn6C5CC5)CC4)nn3)cc2)cc1 : 67.7
O=C(/C=C/c1cccc(Cl)c1)c1ccc(-n2cc(CN3CCN(c4cc5c(cc4F)c(=O)c(C(=O)O)cn5C4CC4)CC3)nn2)cc1 : 37.6

Please turn your attention to the following entry.
State, in one line, measured activity at 10 µM of COc1ccc(/C=C/C(=O)c2ccc(-n3cc(CN4CCN(c5cc6c(cc5F)c(=O)c(C(=O)O)cn6C5CC5)CC4)nn3)cc2)cc1OC
32.6

* * *

Tested on: CAKI-1
Experiment: NCI one-dose screen
Type: cell-based
Conditions: Homo sapiens; CAKI-1, 10 µM; read-out: Growth Percent
Use label 1 when the recorded activity at 10 µM is no lower than 60%; use label 0 when it is lower.

Does the molecule COc1ccc(/C=C/C(=O)c2ccc(-n3cc(CN4CCN(c5cc6c(cc5F)c(=O)c(C(=O)O)cn6C5CC5)CC4)nn3)cc2)cc1OC [Compound 4i] have recorded activity at 10 µM that is 60% or more?
label 1

* * *

System: OVCAR-4
Assay: NCI one-dose screen
Type: cell-based
Conditions: Homo sapiens; OVCAR-4, 10 µM; read-out: Growth Percent
activity at 10 µM strictly less than 90% = yes (1). Otherwise no (0).

O=C(/C=C/c1ccccc1)c1ccc(-n2cc(CN3CCN(c4cc5c(cc4F)c(=O)c(C(=O)O)cn5C4CC4)CC3)nn2)cc1 : no (0)
O=C(/C=C/c1ccc(F)cc1)c1ccc(-n2cc(CN3CCN(c4cc5c(cc4F)c(=O)c(C(=O)O)cn5C4CC4)CC3)nn2)cc1 : no (0)
CN(C)c1ccc(/C=C/C(=O)c2ccc(-n3cc(CN4CCN(c5cc6c(cc5F)c(=O)c(C(=O)O)cn6C5CC5)CC4)nn3)cc2)cc1 : no (0)
COc1ccc(/C=C/C(=O)c2ccc(-n3cc(CN4CCN(c5cc6c(cc5F)c(=O)c(C(=O)O)cn6C5CC5)CC4)nn3)cc2)cc1 : no (0)

Is 90% strictly greater than the compound's reported activity at 10 µM? compound: O=C(/C=C/c1cccc(Cl)c1)c1ccc(-n2cc(CN3CCN(c4cc5c(cc4F)c(=O)c(C(=O)O)cn5C4CC4)CC3)nn2)cc1
yes (1)

Is 90% strictly greater than the compound's reported activity at 10 µM? compound: COc1cc(/C=C/C(=O)c2ccc(-n3cc(CN4CCN(c5cc6c(cc5F)c(=O)c(C(=O)O)cn6C5CC5)CC4)nn3)cc2)cc(OC)c1OC
yes (1)

Is 90% strictly greater than the compound's reported activity at 10 µM? compound: O=C(/C=C/c1ccc(Br)cc1)c1ccc(-n2cc(CN3CCN(c4cc5c(cc4F)c(=O)c(C(=O)O)cn5C4CC4)CC3)nn2)cc1
no (0)

* * *

System: SN12C
Assay: NCI one-dose screen
Format: cell-based
Details: Homo sapiens, read-out: Growth Percent
Method: For screening of anticancer properties, all the developed compounds were chosen by the (NCI) for in-vitro antitumor evaluation. The assay was carried out using 59 human cancer cell lines obtained from nine tumour subpanels (breast, ovarian, melanoma, leukaemia, renal, CNS, lung, prostate, and colon cancer cell lines). Compounds were assessed at a 10 µM concentration. […]
activity at 10 µM strictly less than 40% = 1 (yes). Otherwise 0 (no).

O=C(/C=C/c1ccc(F)cc1)c1ccc(-n2cc(CN3CCN(c4cc5c(cc4F)c(=O)c(C(=O)O)cn5C4CC4)CC3)nn2)cc1 : 1 (yes)

Is 40% strictly greater than the compound's reported activity at 10 µM? compound: COc1cc(/C=C/C(=O)c2ccc(-n3cc(CN4CCN(c5cc6c(cc5F)c(=O)c(C(=O)O)cn6C5CC5)CC4)nn3)cc2)cc(OC)c1OC
1 (yes)

* * *

Property: activity at 10 µM; scope: individual compounds
System: M14
Experiment: NCI one-dose screen
Format: cell-based
Conditions: Homo sapiens; M14, 10 µM; read-out: Growth Percent

COc1ccc(/C=C/C(=O)c2ccc(-n3cc(CN4CCN(c5cc6c(cc5F)c(=O)c(C(=O)O)cn6C5CC5)CC4)nn3)cc2)cc1 : 88.7%
Cc1ccc(/C=C/C(=O)c2ccc(-n3cc(CN4CCN(c5cc6c(cc5F)c(=O)c(C(=O)O)cn6C5CC5)CC4)nn3)cc2)cc1 : 87%

Given O=C(/C=C/c1ccc(Br)cc1)c1ccc(-n2cc(CN3CCN(c4cc5c(cc4F)c(=O)c(C(=O)O)cn5C4CC4)CC3)nn2)cc1 , report its activity at 10 µM on M14.
88.1%

* * *

Test system: SNB-75
Test: NCI one-dose screen
Assay type: cell-based
Details: Homo sapiens; SNB-75, 10 µM; read-out: Growth Percent
reported metric: activity at 10 µM (%)
Write the answer as a number in %, unit excluded.

COc1ccc(/C=C/C(=O)c2ccc(-n3cc(CN4CCN(c5cc6c(cc5F)c(=O)c(C(=O)O)cn6C5CC5)CC4)nn3)cc2)cc1 [Compound 4g] : 91.6
O=C(/C=C/c1ccc(Cl)cc1)c1ccc(-n2cc(CN3CCN(c4cc5c(cc4F)c(=O)c(C(=O)O)cn5C4CC4)CC3)nn2)cc1 [Compound 4c] : 72.3
Cc1ccc(/C=C/C(=O)c2ccc(-n3cc(CN4CCN(c5cc6c(cc5F)c(=O)c(C(=O)O)cn6C5CC5)CC4)nn3)cc2)cc1 [Compound 4f] : 93.6

State, in one line, measured activity at 10 µM of CN(C)c1ccc(/C=C/C(=O)c2ccc(-n3cc(CN4CCN(c5cc6c(cc5F)c(=O)c(C(=O)O)cn6C5CC5)CC4)nn3)cc2)cc1 [Compound 4h]
70.8

* * *

Test system: SK-MEL-5
Assay: NCI one-dose screen
Format: cell-based
Details: Homo sapiens; SK-MEL-5, 10 µM; read-out: Growth Percent
reported metric: activity at 10 µM (%)
Write the answer as a number in %, unit excluded.

O=C(/C=C/c1cccc(Cl)c1)c1ccc(-n2cc(CN3CCN(c4cc5c(cc4F)c(=O)c(C(=O)O)cn5C4CC4)CC3)nn2)cc1 : 78.7

State, in one line, measured activity at 10 µM of O=C(/C=C/c1ccccc1)c1ccc(-n2cc(CN3CCN(c4cc5c(cc4F)c(=O)c(C(=O)O)cn5C4CC4)CC3)nn2)cc1
84.3

State, in one line, measured activity at 10 µM of COc1ccc(/C=C/C(=O)c2ccc(-n3cc(CN4CCN(c5cc6c(cc5F)c(=O)c(C(=O)O)cn6C5CC5)CC4)nn3)cc2)cc1OC
69

* * *

Test system: OVCAR-5
Test: NCI one-dose screen
Format: cell-based
Details: Homo sapiens; OVCAR-5, 10 µM; read-out: Growth Percent
Use true (1) when the recorded activity at 10 µM is no lower than 90%; use false (0) when it is lower.

COc1cc(/C=C/C(=O)c2ccc(-n3cc(CN4CCN(c5cc6c(cc5F)c(=O)c(C(=O)O)cn6C5CC5)CC4)nn3)cc2)cc(OC)c1OC : false (0)
O=C(/C=C/c1ccc(F)cc1)c1ccc(-n2cc(CN3CCN(c4cc5c(cc4F)c(=O)c(C(=O)O)cn5C4CC4)CC3)nn2)cc1 : false (0)
O=C(/C=C/c1cccc(Cl)c1)c1ccc(-n2cc(CN3CCN(c4cc5c(cc4F)c(=O)c(C(=O)O)cn5C4CC4)CC3)nn2)cc1 : false (0)

Does the molecule O=C(/C=C/c1ccc(Br)cc1)c1ccc(-n2cc(CN3CCN(c4cc5c(cc4F)c(=O)c(C(=O)O)cn5C4CC4)CC3)nn2)cc1 have recorded activity at 10 µM that is 90% or more?
true (1)

Does the molecule CN(C)c1ccc(/C=C/C(=O)c2ccc(-n3cc(CN4CCN(c5cc6c(cc5F)c(=O)c(C(=O)O)cn6C5CC5)CC4)nn3)cc2)cc1 have recorded activity at 10 µM that is 90% or more?
true (1)
